assay: IUF_NPC2a_radial_glia_migration_120hr: Leibniz Research Institute for Environmental Medicine (IUF) 120-hour Neural Progenitor Cell Migration Assay for Radial Glia Migration (NPC2a) (AID 2284298)
Calls of active or inactive are those of the source. Rule for the calls: active = hit-call score of the fitted dose curve at least 0.9, where 1 is the maximum; inactive = score below 0.9.
readout_kind: AC50

The examples below pair each entry with its known result.
> print(dat)
                                   compound               val
1  CCOP(=S)(Oc1cnc(C(C)(C)C)nc1)OC(C)C (stereo unspecified)          inactive
2  CCOP(=S)(OCC)OC(Cl)C(Cl)(Cl)Cl (stereo unspecified)  22.8 µM (active)
3             CC1=NNC(=O)N(/N=C/c2cccnc2)C1          inactive
4                    CCCCSP(=O)(SCCCC)SCCCC          inactive
5  COP(=O)(OC)C(O)C(Cl)(Cl)Cl (stereo unspecified)          inactive

Provide AC50 value for the following compound: "CC(C)N(C(=O)SCC(Cl)=C(Cl)Cl)C(C)C"
4.18 µM (active)

Provide AC50 value for the following compound: "CSC1=N[C@@](C)(c2ccccc2)C(=O)N1Nc1ccccc1"
inactive

Provide AC50 value for the following compound: "O=[N+]([O-])c1cc(C(F)(F)F)c(Cl)c([N+](=O)[O-])c1Nc1ncc(C(F)(F)F)cc1Cl"
0.832 µM (active)

Provide AC50 value for the following compound: "CCCSP(=O)(OCC)SCCC"
inactive

Provide AC50 value for the following compound: "CN(C)[C@@H]1C(=O)C(C(N)=O)=C(O)[C@@]2(O)C(=O)C3=C(O)c4c(O)cccc4[C@@](C)(O)[C@H]3[C@H](O)[C@@H]12"
42.5 µM (active)

Provide AC50 value for the following compound: "CON=C(C(=O)OC)c1ccccc1CON=C(C)c1cccc(C(F)(F)F)c1"
11.8 µM (active)

====

biological target: human CYP2B6, CYP2B6 (gene 1555); assay: NVS_ADME_hCYP2B6: NovaScreen (NVS) CYP450-related Enzyme Activity (ADME) Assay for human CYP2B6 (AID 2283101)
Inconclusive results are not listed. The source made the active and inactive calls. The calls were made as follows: active = hit-call score of the fitted dose curve at least 0.9, where 1 is the maximum; inconclusive = response in the unintended direction; inactive = score below 0.9.
readout_kind: AC50

The examples below pair each entry with its known result.
> print(dat)
                                   molecule  readout.kind               val
1              CCc1cccc(CC)c1N(COC)C(=O)CCl          AC50  1580 nM (active)
2  FC(F)C(F)(F)OCC(Cn1cncn1)c1ccc(Cl)cc1Cl (centres undefined)          AC50  3740 nM (active)
3      CCOP(=S)(OCC)Oc1ccc([N+](=O)[O-])cc1          AC50   990 nM (active)

Provide AC50 value for the following molecule: CC(C1CC1)C(O)(Cn1cncn1)c1ccc(Cl)cc1 (centres undefined)
6320 nM (active)

====

read-out: xenobiotic metabolism (CYP1A1), CYP1A1 (gene 1543); experiment: CLD_CYP1A1_48hr: CellzDirect (CLD) Gene Expression Assay for xenobiotic metabolism (CYP1A1) at 48 hours (AID 2283705)
Results filed as inconclusive are left out. Active and inactive are the calls of the source. Rule for the calls: active = hit-call score of the fitted dose curve at least 0.9, where 1 is the maximum; inconclusive = response in the unintended direction; inactive = score below 0.9.
// one of 1.0 (active), 0.0 (inactive), no free text

Reference set (6 entries):
> print(dat)
                                   molecule  cat
1  CCC(CC)Nc1c([N+](=O)[O-])cc(C)c(C)c1[N+](=O)[O-]  0.0
2  COP(=O)(OC)OC(Br)C(Cl)(Cl)Br (stereo unspecified)  0.0
3                  CCC(=O)Nc1ccc(Cl)c(Cl)c1  1.0
4  CON=C(C(=O)OC)c1ccccc1CON=C(C)c1cccc(C(F)(F)F)c1  1.0
5                 CNC(=O)ON=C(SC)C(=O)N(C)C  0.0
6             Nc1c(Cl)cc([N+](=O)[O-])cc1Cl  1.0

In this assay, the call recorded for "Cc1cc(C2CC2)nc(Nc2ccccc2)n1" was what?
0.0

In this assay, the call recorded for "CCOP(=O)(OCC)Oc1cc(C)nc(C(C)C)n1" was what?
0.0

In this assay, the call recorded for "C[Si](Cn1cncn1)(c1ccc(F)cc1)c1ccc(F)cc1" was what?
1.0

Origin of measurements: PubChem BioAssay (EPA / NIEHS)
